EXPERIMENTAL SYSTEM: Human TRPC6 (Homo sapiens)
Construct: expressed in transfected cells
Sequence (Q9Y210 1-931): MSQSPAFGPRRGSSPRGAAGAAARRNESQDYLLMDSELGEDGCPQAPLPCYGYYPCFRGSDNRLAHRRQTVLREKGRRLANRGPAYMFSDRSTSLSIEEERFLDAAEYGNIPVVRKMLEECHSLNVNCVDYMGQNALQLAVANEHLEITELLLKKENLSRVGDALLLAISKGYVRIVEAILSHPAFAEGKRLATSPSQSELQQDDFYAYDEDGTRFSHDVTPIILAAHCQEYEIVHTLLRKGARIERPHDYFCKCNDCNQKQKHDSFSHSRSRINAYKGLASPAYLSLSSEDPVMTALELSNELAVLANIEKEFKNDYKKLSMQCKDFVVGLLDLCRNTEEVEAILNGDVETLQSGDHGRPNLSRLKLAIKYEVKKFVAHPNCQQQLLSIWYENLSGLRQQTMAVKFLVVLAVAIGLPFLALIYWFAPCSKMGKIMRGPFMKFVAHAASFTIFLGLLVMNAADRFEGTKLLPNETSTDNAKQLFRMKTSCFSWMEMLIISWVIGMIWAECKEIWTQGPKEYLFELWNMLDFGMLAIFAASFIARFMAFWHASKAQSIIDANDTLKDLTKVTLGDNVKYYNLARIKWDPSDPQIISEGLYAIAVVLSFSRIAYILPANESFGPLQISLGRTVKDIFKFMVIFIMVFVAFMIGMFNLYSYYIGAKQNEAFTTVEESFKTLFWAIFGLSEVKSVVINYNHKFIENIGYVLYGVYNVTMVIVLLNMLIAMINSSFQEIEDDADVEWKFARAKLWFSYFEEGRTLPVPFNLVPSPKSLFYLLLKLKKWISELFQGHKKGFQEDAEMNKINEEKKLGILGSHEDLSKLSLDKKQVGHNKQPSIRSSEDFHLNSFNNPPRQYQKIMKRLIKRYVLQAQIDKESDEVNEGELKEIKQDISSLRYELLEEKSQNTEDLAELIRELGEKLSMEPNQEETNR
ASSAY EXPLANATION: Evaluation of TRPC6 channel inhibitory activity (1), FLIPR Calcium 5 Assay Kit, OAG stimulation (Compound Nos. 1-1293)
Assay type: cell-based
TEST PARAMETERS: Human TRPC6 stably-expressing cells, OAG 30 μM, FLIPR Calcium 5 Assay Kit; read-out: Inhibitory activity (pIC50 class) (converted)
Each entry below carries its reported IC50.

Cc1nn(CC(C)(C)C)cc1Oc1cc(F)ccc1-c1ncc(CCN)cn1 [compound 985] ... < 10 nM
Cc1c(Oc2cc(C#N)ccc2-c2ncc(CCN)cn2)cnn1CC(C)(C)C [compound 938] ... 10 to 1000 nM
Cn1nc(C2CCC2)cc1Oc1cc(C#N)ccc1-c1ccc(CCN)cn1 [Compound 237] ... < 10 nM
N#Cc1ccc(-c2ncc(CCN)cn2)c(C(=O)c2nnc(N3CCOCC3)s2)c1 [compound 1096] ... 10 to 1000 nM
CC(C)c1cn(Cc2cc(C#N)ccc2-c2ncc(CCN)cn2)nn1 [compound 1185] ... < 10 nM
Cc1nc(Oc2cc(C#N)ccc2-n2cc([C@@H](O)CN)cn2)cc(-c2ccccn2)n1 [compound 352] ... 10 to 1000 nM

Query: Kindly indicate its recorded IC50. Item: CC(C)c1nc(Oc2cc(C#N)ccc2-c2ncc(CN)cn2)n(C)n1 [compound 814]
Reply: > 1000 nM

Query: Indicate its recorded IC50; the molecule in question is N#Cc1ccc(-c2ncc(CCN)cn2)c(Cn2cncc2-c2ccccc2)c1 [compound 1134]
Reply: > 1000 nM

Query: For Cn1nc(C2CCC2)cc1Oc1cc(C#N)ccc1-c1ncc(C(O)CNCC#N)cn1 (stereo not drawn) [Compound 281] , write its IC50.
Reply: > 1000 nM

Query: // fetch IC50 given entry N#Cc1ccc(-c2ccc([C@@H](O)CN)cn2)c(Cn2cncc2-c2ccccc2)c1 [compound 1136]
Reply: > 1000 nM

Query: Supply recorded IC50 for CC(C)Cc1cn(Cc2cc(C#N)ccc2-c2ncc(CCN)cn2)nn1 [compound 1184] here.
Reply: < 10 nM

Query: For the molecule N#Cc1ccc(-c2ncc(CCN)cn2)c(Oc2ccc(N3CCCC3)nc2)c1 [compound 750] , give its reported IC50.
Reply: 10 to 1000 nM

Query: Return reported IC50. Input molecule: N#Cc1ccc(-c2ccc(CCN)cn2)c(Oc2cnnc(Cl)c2)c1 [Compound 87]
Reply: > 1000 nM

Query: Specify measured IC50 for Cc1nc(OCC2CC2(F)F)cc(Oc2cc(C#N)ccc2-c2ncc(CCN)cn2)n1 (stereo not drawn) [compound 883] .
Reply: 10 to 1000 nM

Query: Give IC50 for the following molecule: Cc1nc(Sc2cc(C#N)ccc2-c2ncc(CCN)cn2)cc(N2CCCCC2)n1 [compound 1255]
Reply: < 10 nM

Query: Retrieve IC50 measured for CCN(CC)c1nnc(Oc2cc(C#N)ccc2-c2ncc(CCN)cn2)s1 [compound 724] and print it.
Reply: < 10 nM

Query: Specify reported IC50 for the molecule shown: Cc1nc(NCC(F)(F)F)cc(Oc2cc(C#N)ccc2-c2ncc(CN)cn2)n1 [compound 640]
Reply: 10 to 1000 nM

Query: Please supply the value of reported IC50 for the item Cn1nc(Br)cc1Oc1cc(C#N)ccc1-c1ncc(CN)cn1 [compound 929]
Reply: > 1000 nM

Cited source: patent US20230167073A1
